Reference for the values: PubChem BioAssay (NCI)

experiment: NCI Yeast Anticancer Drug Screen. Data for the rad50 strain (AID 155);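 further: 0% = growth of vehicle-only cultures of the same strain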; conditions: S. cerevisiae rad50 strain growth inhibition; at 50.0 µM (retest, dose inferred, filed as 5.0); stronger effect = higher value
This is part of a sample that, as a whole, favours compounds with a hit. Of some 79,000 tested, about 15% had one in any assay.
Decide using growth inhibition: a value greater than or equal to 90% is criterion met, a smaller one is criterion not met.

>  <molecule>
Cc1cccc2c1Oc1ccccc1C2N1C(=O)/C(=C/c2cccs2)SC1=S (stereo unspecified)

>  <group>
criterion not met

$$$$
>  <molecule>
C(=C1/CNC/C(=C/c2ccccc2)C1)/c1ccccc1

>  <group>
criterion met

$$$$
>  <molecule>
O=S(=O)(c1ccc(NC(=S)NCc2ccncc2)cc1)N1CCCCC1

>  <group>
criterion not met

$$$$
>  <molecule>
Cc1ccc(/C=N\NC(=S)N/N=C/c2ccc(C)cc2)cc1

>  <group>
criterion met

$$$$

Enquiry: Hi team, for Cc1ccccc1NC(=O)c1cc2cc(N=Nc3ccccc3C(=O)O)ccc2oc1=O , is the recorded growth inhibition at or above 90%?
Return: criterion not met

Enquiry: Hi team, for O=C(Nc1nnc(-c2ccccc2)s1)c1cc(=O)c2cc(Cl)ccc2o1 , is the recorded growth inhibition at or above 90%?
Return: criterion not met

Enquiry: Hi team, for Cc1ccc2c(c1C)-c1c(ccc(C)c1C)C(=O)C2=O , is the recorded growth inhibition at or above 90%?
Return: criterion met

----------
assay: NCI Yeast Anticancer Drug Screen. Data for the cln2 rad14 strain (AID 165);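 further: 0% = growth equal to vehicle treated cultures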; conditions: S. cerevisiae cln2 rad14 strain, at 50.0 µM (retest, dose inferred, filed as 5.0), stronger effect = higher value
This is part of a sample that, as a whole, favours compounds with a hit. Of some 79,000 tested, about 15% had one in any assay.
Decide using growth inhibition: a value greater than or equal to 70% is fulfilled, a smaller one is not fulfilled.

Example results:
>  <compound>
Cc1ccccc1NC(=O)C1C(=O)N(c2ccccc2C)C(=O)/C1=N/O (stereo not drawn)

>  <group>
not fulfilled

$$$$
>  <compound>
CN[C@@H](Cc1cccc2ccccc12)C(=O)N[C@@H](CC(C)C)B(O)O

>  <group>
not fulfilled

$$$$
>  <compound>
CCCCCCCCCCCCCCCCCC(=O)OCCOCCO

>  <group>
not fulfilled

$$$$
>  <compound>
N#Cc1ccccc1[N+](=O)[O-]

>  <group>
not fulfilled

$$$$
>  <compound>
CC(C)(C)c1ccc(Sc2ncnc3ccccc23)cc1

>  <group>
fulfilled

$$$$

Enquiry: Hi team, for CCCCCCCCCCC(=O)CC(=O)c1c(O)cccc1O , is the recorded growth inhibition at or above 70%?
Return: not fulfilled

----------
assay: NCI Yeast Anticancer Drug Screen. Data for the sgs1 mgt1 strain (AID 161);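 further: 0% = growth of cultures given vehicle only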; conditions: S. cerevisiae sgs1 mgt1 strain, at 5.0 µM (retest, dose inferred, filed as 0.5), stronger effect = higher value
This is part of a sample that, as a whole, favours compounds with a hit. Of some 79,000 tested, about 15% had one in any assay. Calls of active or inactive are those of the source. Rule as the data show it: active = growth inhibition above about 70%; inactive = the rest.
Form field: growth inhibition (one value per entry).

Example cases with answers are listed next.
>  <compound>
CCCCCC(Oc1ccc(Cl)cc1)C(=O)O (stereo unspecified)

>  <readout-name>
growth inhibition

>  <result>
3% (inactive)

$$$$
>  <compound>
C=CC(=O)N1C/C(=C\c2ccccc2)C(=O)/C(=C/c2ccccc2)C1

>  <readout-name>
growth inhibition

>  <result>
49% (inactive)

$$$$
>  <compound>
O=C1/C(=C/c2ccc(Cl)cc2)CSC/C1=C\c1ccc(Cl)cc1

>  <readout-name>
growth inhibition

>  <result>
19% (inactive)

$$$$

Summary for this compound, CCCCCC(C)C1=NC(C)(C)CC(C)O1 (stereo unspecified) : growth inhibition is -64% (inactive)

Summary for this compound, O=C(CNS(=O)(=O)Cc1ccccc1)NCC(=O)NNc1ccccc1 : growth inhibition is -5% (inactive)

Summary for this compound, CCCCCCCCCCCCCCCCC/C=N\NC(=O)CCCC(=O)N/N=C/CCCCCCCCCCCCCCCCC : growth inhibition is -2% (inactive)

Summary for this compound, Cc1ccc(C(C)C)c(O)c1N/N=C/c1cc(Cl)ccc1O : growth inhibition is 1% (inactive)

Summary for this compound, CCSc1nnc(CSc2nc(-c3ccccc3)c(-c3ccccc3)[nH]2)n1-c1ccccc1 : growth inhibition is 32% (inactive)

Summary for this compound, S=c1c2cn[nH]c2nc2scc(-c3ccc(Cl)cc3)n12 : growth inhibition is -27% (inactive)

Summary for this compound, O=C(O)c1ccc(N=CC2CO2)cc1 (stereo unspecified) : growth inhibition is 13% (inactive)

Summary for this compound, CC(C)=CCC/C(C)=C/COC(=O)Nc1ccccc1 : growth inhibition is -2% (inactive)

----------
experiment: NCI Yeast Anticancer Drug Screen. Data for the bub3 strain (AID 167); conditions: S. cerevisiae bub3 mutant strain, at 5.0 µM (retest, dose inferred, filed as 0.5), stronger effect = higher value
This is part of a sample that, as a whole, favours compounds with a hit. Of some 79,000 tested, about 15% had one in any assay.
Form field: growth inhibition (one value per entry).
Give the value in % but do not write % after it.

Example cases with answers are listed next.
>  <compound>
O=C(O)CCSc1ncnc2nc[nH]c12

>  <result>
-10

$$$$
>  <compound>
CCCCCCOC(=O)COc1ccccc1

>  <result>
24

$$$$
>  <compound>
CC(C)(C)OC(=O)c1ccc(NCC2=C(Br)C(=O)C=CC2=O)cc1

>  <result>
0

$$$$
>  <compound>
CCCC(CC)c1cc(O)c(O)cc1C(CC)CCC (configuration not stated)

>  <result>
-9

$$$$
>  <compound>
Cc1c2ccncc2c(C)c2c1[nH]c1ccc(OCCN(C)C)cc12

>  <result>
4

$$$$

Summary for this compound, C[N+]1=C(/C=C\c2ccc(O)c3ccccc23)C(C)(C)c2ccccc21 : growth inhibition is 15

Summary for this compound, O=C(/C=C/c1cccc2ccccc12)c1cccc([N+](=O)[O-])c1 : growth inhibition is -8

Summary for this compound, CSC(=S)OC1CC(n2cnc3c(NC(=O)c4ccccc4)ncnc32)OC1CO[Si](C)(C)C(C)(C)C (configuration not stated) : growth inhibition is -1

Summary for this compound, CCc1cc2c(c3c1C(=O)CC3)C(C)(C)CCC2 : growth inhibition is 12

Summary for this compound, CCCCCCC(O)(CCCCCC)CCCCCC : growth inhibition is 0

Summary for this compound, FC(F)(F)c1ccccc1NC(=S)SCc1ccc2c(c1)OCO2 : growth inhibition is 3

Summary for this compound, NC1=C(O)C(=O)C(c2c3ccccc3cc3ccccc23)O1 (configuration not stated) : growth inhibition is 16

----------
assay: NCI Yeast Anticancer Drug Screen. Data for the mec2-1 strain (AID 157); conditions: S. cerevisiae mec2-1 strain, at 50.0 µM
About 79,000 compounds went through this panel and 15% of them were active in at least one assay; those are over-represented in the sample as a whole. Calls of active or inactive are those of the source. No stated cut-off is given here; in the data, active means growth inhibition above about 70%; inactive means the rest.
Give one outcome, nothing more. List: 1 (active), -1 (inactive)

Enquiry: Assay result, entry Cc1cc(N(CCCCl)CCCCl)ccc1C=Nc1cccc(Cl)c1 — outcome?
Return: -1

Enquiry: Assay result, entry CSc1cc(Cl)c(C)cc1S(=O)(=O)NC(=O)Nc1ccc(Cl)cc1 — outcome?
Return: 1

Enquiry: Assay result, entry Cc1[nH]c2c(C)c3c([nH]c4ccc(Cl)cc43)c(C)c2c(=O)c1C — outcome?
Return: -1

Enquiry: Assay result, entry Cc1ccc(C(=O)OCCN2CCN(c3ccccc3)CC2)c([N+](=O)[O-])c1OCc1ccccc1 — outcome?
Return: -1

Enquiry: Assay result, entry CC(=O)OCC1OC(N2CCc3cc([N+](=O)[O-])ccc32)C(OC(C)=O)C(OC(C)=O)C1OC(C)=O (stereo not given) — outcome?
Return: -1

Enquiry: Assay result, entry CC(=O)Nc1cc(F)c2c(c1)Cc1ccccc1-2 — outcome?
Return: -1

Enquiry: Assay result, entry O=[N+]([O-])C(=C1Nc2ccccc2N1)C(Cl)=C(Cl)Cl — outcome?
Return: -1

Enquiry: Assay result, entry N#CNc1nc(N)c(-c2ccc(Cl)cc2)c(C(=O)Nc2ccc(Cl)c(Cl)c2)n1 — outcome?
Return: -1

Enquiry: Assay result, entry CCc1[nH]c2ccccc2c1C(c1c(CC)[nH]c2ccccc12)C1CCCCC1=O (stereo not given) — outcome?
Return: 1

Enquiry: Assay result, entry CN(Cc1ccccc1)CC(O)c1cc(-c2ccc(Cl)cc2)nc2ccccc12 (stereo not given) — outcome?
Return: 1

----------
Form field: growth inhibition (one value per entry).
test: NCI Yeast Anticancer Drug Screen. Data for the rad50 strain (AID 155);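 further: 0% = growth of vehicle-only cultures of the same strain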; conditions: S. cerevisiae rad50 strain growth inhibition; at 50.0 µM (retest, dose inferred, filed as 5.0); stronger effect = higher value
About 79,000 compounds went through this panel and 15% of them were active in at least one assay; those are over-represented in the sample as a whole.
Give the value in % but do not write % after it.

Example cases with answers are listed next.
>  <compound>
CNC(=O)OC1/C(C)=C\C(C)C(O)C(OC)CC(C)CC2=C(OC)C(=O)C=C(C2=O)N(C)C(=O)/C(C)=C/C=C\C1OC (configuration not stated)

>  <result>
25

$$$$
>  <compound>
O=C(NCC#CCO)C(F)(F)F

>  <result>
-1

$$$$
>  <compound>
CC(C)(CC(=O)NNc1ccccc1)C(=O)O

>  <result>
72

$$$$

Summary for this compound, S=C(Nc1ccccc1)NC1CC2C=CC1CC2 (configuration not stated) : growth inhibition is -4

Summary for this compound, CCC(C(=O)CCN(C)C)(c1ccccc1)c1ccccc1 : growth inhibition is 99

Summary for this compound, CC1CCC2(CC1)NC1=C(CC(C)CC1)C1=C2CC(C)CC1 (configuration not stated) : growth inhibition is 87

Summary for this compound, CCCCCCCN(CCCCCCC)CC(O)Cc1cc2c(c3ccccc13)CCCC2 (configuration not stated) : growth inhibition is 97

Summary for this compound, N#CC(C(=O)C(=O)Nc1cccc(C(F)(F)F)c1)c1ccccc1 (configuration not stated) : growth inhibition is 90
